The values you see were collected from paper PMC4302242.

Molecular target: human TREK-1 channel (Homo sapiens)
Sequence (O95069 whole entry): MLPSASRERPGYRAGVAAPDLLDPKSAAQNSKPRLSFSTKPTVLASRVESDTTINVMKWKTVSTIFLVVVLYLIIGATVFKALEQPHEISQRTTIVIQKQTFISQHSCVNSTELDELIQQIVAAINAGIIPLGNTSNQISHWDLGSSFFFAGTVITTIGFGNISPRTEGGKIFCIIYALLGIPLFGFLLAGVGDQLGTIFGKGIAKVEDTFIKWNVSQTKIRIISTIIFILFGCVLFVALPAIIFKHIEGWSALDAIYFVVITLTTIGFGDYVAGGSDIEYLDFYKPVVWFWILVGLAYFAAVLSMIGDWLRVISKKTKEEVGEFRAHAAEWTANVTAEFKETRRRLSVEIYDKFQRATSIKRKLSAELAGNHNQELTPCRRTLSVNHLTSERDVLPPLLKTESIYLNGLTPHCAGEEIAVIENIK
Test: cell-based
readout-label: IC50
Reply with the number and its unit after it.

Req: Fill blank: measured IC50 of the substance Ac-APLPRWSGPIGVSWGLR-NH2 [analog 2] is ____.
Resp: 60 nM
